Measured values drawn from ChEMBL document CHEMBL1133637 for this set.

- Assay Comment: Maximal plasma concentration in dogs at 10mg/kg oral dose 0.05M citric acid
- Measurement Conditions: dog
Readout Type: log10 Cmax (log10 of the value in nM)

[[record]]
compound = "CC(C)(C)NC(=O)C1CN(Cc2csc3ncccc23)CCN1CC(O)CC(Cc1ccccc1)C(=O)NC1c2ccccc2CC1O (configuration not stated)"
reported = 2.36

[[record]]
compound = "CCOc1ccc(CN2CCN(C[C@@H](O)C[C@@H](Cc3ccccc3)C(=O)NC3c4ccccc4C[C@H]3O)[C@H](C(=O)NC(C)(C)C)C2)cn1 (some centres not stated)"
reported = 2.48

[[record]]
compound = "Cc1c(CN2CCN(CC(O)CC(Cc3ccccc3)C(=O)NC3c4ccccc4CC3O)C(C(=O)NC(C)(C)C)C2)oc2ccccc12 (configuration not stated)"
reported = 2.61

[[record]]
compound = "CC(C)(C)NC(=O)[C@@H]1CN(Cc2cc3ccncc3o2)CCN1C[C@@H](O)C[C@@H](Cc1ccccc1)C(=O)NC1c2ccccc2C[C@H]1O (some centres not stated)"
reported = 4.56

[[record]]
compound = "CC(C)(C)NC(=O)[C@@H]1CN(C(=O)c2cnc3occc3c2)CCN1C[C@@H](O)C[C@@H](Cc1ccccc1)C(=O)NC1c2ccccc2C[C@H]1O (some centres not stated)"
reported = 2.11

[[record]]
compound = "CC(C)(C)NC(=O)C1CN(Cc2cc3cccnc3o2)CCN1CC(O)CC(Cc1ccccc1)C(=O)NC1c2ccccc2CC1O (configuration not stated)"
reported = 3.07

[[record]]
compound = "CC(C)(C)NC(=O)[C@@H]1CN(Cc2cnc3c(c2)CCO3)CCN1C[C@@H](O)C[C@@H](Cc1ccccc1)C(=O)NC1c2ccccc2C[C@H]1O (some centres not stated)"
reported = 2.20


###

- Tested Target: Human immunodeficiency virus type 1 protease (Human immunodeficiency virus 1) (UniProt Q72874)
- Assay Comment: Inhibition of HIV-1 protease in vitro.
Classify by measured IC95: criterion met if it is equal to or exceeds 20 nM, criterion not met if it is smaller.

[[record]]
molecule = "CC(C)(C)NC(=O)[C@@H]1CN(Cc2cnc3ccccc3c2)CCN1C[C@@H](O)C[C@@H](Cc1ccccc1)C(=O)NC1c2ccccc2C[C@H]1O (stereo partly specified)"
group = "criterion met"

[[record]]
molecule = "CC(C)(C)NC(=O)C1CN(Cc2c[nH]c3ccccc23)CCN1CC(O)CC(Cc1ccccc1)C(=O)NC1c2ccccc2CC1O (stereo unspecified)"
group = "criterion met"

[[record]]
molecule = "CC(C)(C)NC(=O)[C@@H]1CN(Cc2cc3ccccc3o2)CCN1C[C@@H](O)C[C@@H](Cc1ccccc1)C(=O)N[C@H]1c2ccccc2C[C@H]1O [L 756423]"
group = "criterion met"

[[record]]
molecule = "CC(C)(C)NC(=O)[C@@H]1CN(Cc2cnc3occc3c2Cl)CCN1C[C@@H](O)C[C@@H](Cc1ccccc1)C(=O)NC1c2ccccc2C[C@H]1O (stereo partly specified)"
group = "criterion not met"

[[record]]
molecule = "Cc1ccc(CN2CCN(C[C@@H](O)C[C@@H](Cc3ccccc3)C(=O)NC3c4ccccc4C[C@H]3O)[C@H](C(=O)NC(C)(C)C)C2)cn1 (stereo partly specified)"
group = "criterion met"

[[record]]
molecule = "CC(C)(C)NC(=O)[C@@H]1CN(Cc2nc3ccccc3[nH]2)CCN1C[C@@H](O)C[C@@H](Cc1ccccc1)C(=O)NC1c2ccccc2C[C@H]1O (stereo partly specified)"
group = "criterion met"

[[record]]
molecule = "CC(C)(C)NC(=O)[C@@H]1CN(Cc2cnc3occc3c2)CCN1C[C@@H](O)C[C@@H](Cc1ccccc1)C(=O)N[C@H]1c2ccccc2C[C@H]1O"
group = "criterion not met"

[[record]]
molecule = "CC(C)(C)NC(=O)C1CN(Cc2cc3cccnc3s2)CCN1CC(O)CC(Cc1ccccc1)C(=O)NC1c2ccccc2CC1O (stereo unspecified)"
group = "criterion not met"

[[record]]
molecule = "CC(C)(C)NC(=O)[C@@H]1CN(Cc2cc3cnccc3o2)CCN1C[C@@H](O)C[C@@H](Cc1ccccc1)C(=O)NC1c2ccccc2C[C@H]1O (stereo partly specified)"
group = "criterion not met"

[[record]]
molecule = "CC(C)(C)NC(=O)[C@@H]1CN(Cc2ccc(Cl)nc2)CCN1C[C@@H](O)C[C@@H](Cc1ccccc1)C(=O)NC1c2ccccc2C[C@H]1O (stereo partly specified)"
group = "criterion not met"

[[record]]
molecule = "CSc1ncccc1CN1CCN(C[C@@H](O)C[C@@H](Cc2ccccc2)C(=O)NC2c3ccccc3C[C@H]2O)[C@H](C(=O)NC(C)(C)C)C1 (stereo partly specified)"
group = "criterion not met"


###

- Tested Target: UniProt:Q72874
- Assay Comment: Inhibition of HIV-1 protease in vitro.
Readout Type: IC95

[[record]]
compound = "CC(C)(C)NC(=O)C1CN(Cc2ccc3occc3c2)CCN1CC(O)CC(Cc1ccccc1)C(=O)NC1c2ccccc2CC1O (stereo unspecified)"
reported = "0.1 µM"

[[record]]
compound = "CC(C)(C)NC(=O)[C@@H]1CN(Cc2cc3ccsc3s2)CCN1C[C@@H](O)C[C@@H](Cc1cccnc1)C(=O)N[C@H]1c2ccccc2C[C@H]1O"
reported = "0.006 µM"

[[record]]
compound = "CC(C)(C)NC(=O)[C@@H]1CN(Cc2cnc3c(c2)CCO3)CCN1C[C@@H](O)C[C@@H](Cc1ccccc1)C(=O)NC1c2ccccc2C[C@H]1O (stereo partly specified)"
reported = "0.025 µM"

[[record]]
compound = "CCOc1ccc(CN2CCN(C[C@@H](O)C[C@@H](Cc3ccccc3)C(=O)NC3c4ccccc4C[C@H]3O)[C@H](C(=O)NC(C)(C)C)C2)cn1 (stereo partly specified)"
reported = "0.1 µM"

[[record]]
compound = "COc1ncccc1CN1CCN(C[C@@H](O)C[C@@H](Cc2ccccc2)C(=O)NC2c3ccccc3C[C@H]2O)[C@H](C(=O)NC(C)(C)C)C1 (stereo partly specified)"
reported = "0.012 µM"

[[record]]
compound = "CC(C)(C)NC(=O)[C@@H]1CN(Cc2cccnc2)CCN1C[C@@H](O)C[C@@H](Cc1ccccc1)C(=O)N[C@H]1c2ccccc2C[C@H]1O"
reported = "0.05 µM"


###

- Tested Target: Human immunodeficiency virus type 1 protease (Human immunodeficiency virus 1) (UniProt Q72874)
- Assay Comment: Inhibition of HIV-1 protease in vitro.
Readout Type: IC95 (nM)

[[record]]
molecule = "CC(C)(C)NC(=O)[C@@H]1CN(Cc2cc3ccncc3o2)CCN1C[C@@H](O)C[C@@H](Cc1ccccc1)C(=O)NC1c2ccccc2C[C@H]1O (some centres undefined)"
readout_type = "IC95"
result_unit = "nM"
reported = 12.5

[[record]]
molecule = "CC(C)(C)NC(=O)[C@@H]1CN(Cc2cnc3ccoc3c2)CCN1C[C@@H](O)C[C@@H](Cc1ccccc1)C(=O)NC1c2ccccc2C[C@H]1O (some centres undefined)"
readout_type = "IC95"
result_unit = "nM"
reported = 3

[[record]]
molecule = "CC(C)(C)NC(=O)C1CN(Cc2cc3cccnc3o2)CCN1CC(O)CC(Cc1ccccc1)C(=O)NC1c2ccccc2CC1O (centres undefined)"
readout_type = "IC95"
result_unit = "nM"
reported = 50

[[record]]
molecule = "Cc1cc2oc(CN3CCN(C[C@@H](O)C[C@@H](Cc4ccccc4)C(=O)NC4c5ccccc5C[C@H]4O)[C@H](C(=O)NC(C)(C)C)C3)cc2cn1 (some centres undefined)"
readout_type = "IC95"
result_unit = "nM"
reported = 12


###

- Tested Target: Human immunodeficiency virus type 1 protease (Human immunodeficiency virus 1, UniProt Q72874)
- Assay Comment: Concentration required for 50% inhibition of Protease
Readout Type: IC50

[[record]]
compound = "CCOC(=O)c1cnc2oc(CN3CCN(CC(O)CC(Cc4ccccc4)C(=O)NC4c5ccccc5CC4O)C(C(=O)NC(C)(C)C)C3)cc2c1 (centres undefined)"
reported = "0.27 nM"

[[record]]
compound = "CC(C)(C)NC(=O)[C@@H]1CN(C(=O)c2cnc3occc3c2)CCN1C[C@@H](O)C[C@@H](Cc1ccccc1)C(=O)NC1c2ccccc2C[C@H]1O (some centres undefined)"
reported = "1.7 nM"

[[record]]
compound = "CC(C)(C)NC(=O)C1CN(Cc2cc3cc(CO)cnc3o2)CCN1CC(O)CC(Cc1ccccc1)C(=O)NC1c2ccccc2CC1O (centres undefined)"
reported = "0.18 nM"

[[record]]
compound = "Cc1c(CN2CCN(CC(O)CC(Cc3ccccc3)C(=O)NC3c4ccccc4CC3O)C(C(=O)NC(C)(C)C)C2)oc2ccccc12 (centres undefined)"
reported = "0.11 nM"


###

- Assay Comment: in vivo
- Measurement Conditions: dog, po, 10 mg/kg
Readout Type: concentration at 8 h (nM)

[[record]]
molecule = "CC(C)(C)NC(=O)[C@@H]1CN(Cc2cc3ccccc3o2)CCN1C[C@@H](O)C[C@@H](Cc1ccccc1)C(=O)N[C@H]1c2ccccc2C[C@H]1O"
reported = 800

[[record]]
molecule = "CC(C)(C)NC(=O)[C@@H]1CN(Cc2cnc3ccoc3c2)CCN1C[C@@H](O)C[C@@H](Cc1ccccc1)C(=O)NC1c2ccccc2C[C@H]1O (some centres undefined)"
reported = 1550

[[record]]
molecule = "CC(C)(C)NC(=O)[C@@H]1CN(Cc2cnc3occc3c2)CCN1C[C@@H](O)C[C@@H](Cc1ccccc1)C(=O)N[C@H]1c2ccccc2C[C@H]1O"
reported = 9430

[[record]]
molecule = "CC(C)(C)NC(=O)[C@@H]1CN(Cc2cnc3occc3c2Cl)CCN1C[C@@H](O)C[C@@H](Cc1ccccc1)C(=O)NC1c2ccccc2C[C@H]1O (some centres undefined)"
reported = 2060

